biological target: UniProt P04585; assay: HIV-protease inhibitory activity assay (FRET peptide substrate); conditions: Test Example 1
Please go through the items and note down their IC50.
One number for each entry, in nM.

Worked examples follow.
CC(C)CN(CC(O)C(Cc1ccccc1)NC(=O)OC1COC2OCCC12)S(=O)(=O)c1ccc(NCc2sc3c(c2C(=O)O)CC(C)(C)CC3)cc1 (centres unmarked) ... 5.78
COc1ccc(S(=O)(=O)N(CC(C)C)CC(O)C(Cc2ccc(OCc3ccccc3-c3sc4c(c3C(=O)NS(=O)(=O)C3CC3)CC(C)(C)CC4)cc2)NC(=O)OC2COC3(C)OCCC23)cc1 (centres unmarked) ... 1.11
Cc1cc(OCCNc2nc3ccc(S(=O)(=O)N(CC(C)C)CC(O)C(Cc4ccccc4)NC(=O)OC4COC5(C)OCCC45)cc3s2)ccc1-c1sc2c(c1C(=O)O)CC(C)(C)CC2 (centres unmarked) ... 0.85
COc1ccc(S(=O)(=O)N(CC(C)C)CC(O)C(Cc2ccc(NCC3CC(C)(C)CCC3c3sc4c(c3C(=O)O)CC(C)(C)CC4)cc2)NC(=O)OC2COC3OCCC23)cc1 (centres unmarked) [Compound I-886] ... 3.68

Here's the next entry for you.
The compound COc1ccc(S(=O)(=O)N(CC(C)C)CC(O)C(Cc2ccc(NCC3CC(C)(C)CCC3c3sc4c(c3C(=O)O)CC(C)(C)CC4)cc2)NC(=O)OC2COC3(C)OCCC23)cc1 (centres unmarked) [Compound I-764] showed IC50 equal to 2.81

---

assay: Evaluation of total body clearance (CLtot), intravenous administration; type: in vivo, Sprague-Dawley (SD); conditions: rat (SD), intravenous administration 0.5-10 mg/kg; CLtot = dose/AUC
# if value of rat_CLt reaches 2 mL/min/kg, tag True; if it stays below, tag False

# example entries with known answers
COc1ccc(S(=O)(=O)N(CC(C)C)CC(O)C(Cc2ccc(NCC3=C(c4sc5c(c4C(=O)O)CC(C)(C)CC5)CCOC3)cc2)NC(=O)OC2COC3(C)OCCC23)cc1 (stereo not shown) ... True
COc1ccc(S(=O)(=O)N(CC2CCCC2)CC(O)C(Cc2ccc(OCc3ccccc3-n3nc4c(c3C(=O)O)CC3(CCCC3)CC4)cc2)NC(=O)OC2COC3(C)OCCC23)cc1 (stereo not shown) ... False
COc1ccc(S(=O)(=O)N(CC(C)C)CC(O)C(Cc2ccc(NCC3=C(c4sc5c(c4C(=O)O)CC(C)(C)CC5)CCCCC3)cc2)NC(=O)OC2COC3(C)OCCC23)cc1 (stereo not shown) ... False

# check: rat_CLt of COc1ccc(S(=O)(=O)N(CC(C)C)CC(O)C(Cc2ccc(NC3CCN(c4ccccc4-c4sc5c(c4C(=O)O)CC(C)(C)CC5)C3)cc2)NC(=O)OC2COC3(C)OCCC23)cc1 (stereo not shown) is greater than or equal to 2 mL/min/kg
True

# check: rat_CLt of COc1ccc(S(=O)(=O)N(CC(C)C)CC(O)C(Cc2ccc(NCc3cc4ccccc4cc3-c3sc4c(c3C(=O)O)CC(C)(C)CC4)cc2)NC(=O)OC2COC3(C)OCCC23)cc1 (stereo not shown) is greater than or equal to 2 mL/min/kg
False

# check: rat_CLt of COc1ccc(S(=O)(=O)N(CC(C)C)CC(O)C(Cc2ccc(NCc3cc(C#N)ccc3-c3sc4c(c3C(=O)O)CC(C)(C)CC4)cc2)NC(=O)OC2COC3(C)OCCC23)cc1 (stereo not shown) is greater than or equal to 2 mL/min/kg
True

# check: rat_CLt of `COc1ccc(S(=O)(=O)N(CC(C)C)C[C@@H](O)[C@H](Cc2ccc(OCc3ccccc3-c3sc4c(c3C(=O)O)CC(C)(C)CC4)cc2)NC(=O)O[C@H]2CO[C@@]3(C)OCC[C@@H]23)cc1` is greater than or equal to 2 mL/min/kg
False

# check: rat_CLt of COc1ccc(S(=O)(=O)N(CC(C)C)CC(O)C(Cc2ccc(N3CCC(Oc4cc5ccccc5cc4-c4sc5c(c4C(=O)O)CC(C)(C)CC5)C3)cc2)NC(=O)OC2COC3(C)OCCC23)cc1 (stereo not shown) is greater than or equal to 2 mL/min/kg
False

# check: rat_CLt of COc1ccc(S(=O)(=O)N(CC(C)C)CC(O)C(Cc2ccc(NCC3CCCC3c3sc4c(c3C(=O)O)CC(C)(C)CC4)cc2)NC(=O)OC2COC3OCCC23)cc1 (stereo not shown) is greater than or equal to 2 mL/min/kg
True

# check: rat_CLt of `COc1ccc(S(=O)(=O)N(CC(C)C)C[C@@H](O)[C@H](Cc2ccc(N3CC[C@H](Oc4ccccc4-n4nc5c(c4C(=O)O)CC(C)(C)CC5)C3)cc2)NC(=O)O[C@H]2CO[C@@]3(C)OCC[C@@H]23)cc1` is greater than or equal to 2 mL/min/kg
False

---

assay: Evaluation of total body clearance (CLtot), intravenous administration; assay type: in vivo, Sprague-Dawley (SD); details: rat (SD), intravenous administration 0.5-10 mg/kg; CLtot = dose/AUC
# if value of rat_CLt reaches 2 mL/min/kg, tag class 1; if it stays below, tag class 0

COc1ccc(S(=O)(=O)N(CC(C)C)CC(O)C(Cc2ccc(N3CCC(Oc4ccccc4-c4sc5c(c4C(=O)O)CC(C)(C)CC5)C3)cc2)NC(=O)OC2COC3(C)OCCC23)cc1 (centres unmarked) [Compound I-235] ... class 1

# check: rat_CLt of COc1ccc(S(=O)(=O)N(CC2CCC(=O)N2)CC(O)C(Cc2ccc(OCc3ccccc3-c3sc4c(c3C(=O)O)CC(C)(C)CC4)cc2)NC(=O)OC2COC3(C)OCCC23)cc1 (centres unmarked) [Compound I-148] is greater than or equal to 2 mL/min/kg
class 1

# check: rat_CLt of COc1ccc(S(=O)(=O)N(CC(C)C)CC(O)C(Cc2ccc(NCc3ccc(-c4ccccc4-c4sc5c(c4C(=O)O)CC(C)(C)CC5)cc3)cc2)NC(=O)OC2COC3(C)OCCC23)cc1 (centres unmarked) [Compound I-530] is greater than or equal to 2 mL/min/kg
class 0

# check: rat_CLt of COc1ccc(S(=O)(=O)N(CC(C)C)CC(O)C(Cc2ccc(NCc3cc([N+](=O)[O-])ccc3-c3sc4c(c3C(=O)O)CC(C)(C)CC4)cc2)NC(=O)OC2COC3(C)OCCC23)cc1 (centres unmarked) [Compound I-567] is greater than or equal to 2 mL/min/kg
class 1

# check: rat_CLt of COc1ccc(S(=O)(=O)N(CC(C)C)CC(O)C(Cc2ccc(N(C)CC3CCCCC3c3sc4c(c3C(=O)O)CC(C)(C)CC4)cc2)NC(=O)OC2COC3(C)OCCC23)cc1 (centres unmarked) [Compound I-374] is greater than or equal to 2 mL/min/kg
class 1

---

test: Evaluation of total body clearance (CLtot), intravenous administration; type: in vivo, Sprague-Dawley (SD); settings: rat (SD), intravenous administration 0.5-10 mg/kg; CLtot = dose/AUC
assay-endpoint: rat_CLt (mL/min/kg)
Numbers only, in mL/min/kg.

COc1ccc(S(=O)(=O)N(CC(C)C)CC(O)C(Cc2ccc(N(C)CC3=C(c4sc5c(c4C(=O)O)CC(C)(C)CC5)CCOC3)cc2)NC(=O)OC2COC3(C)OCCC23)cc1 (stereo not shown) ... 3.39

Lab note: each compound below needs its rat_CLt filled in.
1. COc1ccc(S(=O)(=O)N(CC(C)C)CC(O)C(Cc2ccc(OCc3ccccc3-n3nc4c(c3C(=O)O)CC(C)(C)CC4)cc2)NC(=O)OC2COC3OCCC23)cc1 (stereo not shown)
2. COc1ccc(S(=O)(=O)N(CC(C)C)CC(O)C(Cc2ccc(N(C)CC3=C(c4sc5c(c4C(=O)O)CC(C)(C)CC5)CCCCC3)cc2)NC(=O)OC2COC3(C)OCCC23)cc1 (stereo not shown)
3. COc1ccc(S(=O)(=O)N(CC(C)C)CC(O)C(Cc2ccc(N(C)CCOc3ccc(-c4sc5c(c4C(=O)O)CC(C)(C)CC5)c(C)c3)cc2)NC(=O)OC2COC3(C)OCCC23)cc1 (stereo not shown)
4. COc1ccc(S(=O)(=O)N(CC(C)C)CC(O)C(Cc2ccc(OCc3ncc(Cl)cc3-c3sc4c(c3C(=O)O)CC(C)(C)CC4)cc2)NC(=O)OC2COC3(C)OCCC23)cc1 (stereo not shown)
5. COc1ccc(S(=O)(=O)N(CC(C)C)CC(O)C(Cc2ccc(OCc3ncccc3-c3ccc(-c4sc5c(c4C(=O)O)CC(C)(C)CC5)cc3)cc2)NC(=O)OC2COC3(C)OCCC23)cc1 (stereo not shown)
6. COc1ccc(S(=O)(=O)N(CC(C)C)CC(O)C(Cc2ccc(NCC3(O)CCCC3c3sc4c(c3C(=O)O)CC(C)(C)CC4)cc2)NC(=O)OC2COC3(C)OCCC23)cc1 (stereo not shown)
7. COc1ccc(S(=O)(=O)N(CC2CCC2)CC(O)C(Cc2ccc(NCc3ccccc3C(=O)Nc3sc4c(c3C(=O)O)CC(C)(C)CC4)cc2)NC(=O)OC2COC3(C)OCCC23)cc1 (stereo not shown)

1: 0.61; 2: 0.127; 3: 0.429; 4: 2.22; 5: 0.535; 6: 3.87; 7: 0.0667

Lab note: each compound below needs its rat_CLt filled in.
1. COc1ccc(S(=O)(=O)N(CC(C)C)CC(O)C(Cc2ccc(NCc3cocc3-c3sc4c(c3C(=O)O)CC(C)(C)CC4)cc2)NC(=O)OC2COC3(C)OCCC23)cc1 (stereo not shown)
2. COc1ccc(S(=O)(=O)N(CC(C)C)CC(O)C(Cc2ccc(N(C)Cc3ccc(F)cc3-c3sc4c(c3C(=O)O)CC(C)(C)CC4)cc2)NC(=O)OC2COC3(C)OCCC23)cc1 (stereo not shown)

4.05
3.32
